SYSTEM: Cellular tumor antigen p53 (Homo sapiens) (UniProt P04637)
Sequence (P04637 whole entry, looked up): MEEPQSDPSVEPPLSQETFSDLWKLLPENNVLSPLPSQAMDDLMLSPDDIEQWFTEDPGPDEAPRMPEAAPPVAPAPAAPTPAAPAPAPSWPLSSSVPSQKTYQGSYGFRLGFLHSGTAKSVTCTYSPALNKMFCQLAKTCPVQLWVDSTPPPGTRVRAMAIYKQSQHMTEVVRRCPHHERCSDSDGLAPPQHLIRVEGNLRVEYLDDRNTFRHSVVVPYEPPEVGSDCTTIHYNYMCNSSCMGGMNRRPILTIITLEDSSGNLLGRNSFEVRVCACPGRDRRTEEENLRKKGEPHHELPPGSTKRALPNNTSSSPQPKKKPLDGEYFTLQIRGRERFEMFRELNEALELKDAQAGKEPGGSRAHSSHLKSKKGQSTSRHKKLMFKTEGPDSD
ASSAY_PROCEDURE: ATG_p53_CIS: Attagene CIS-FACTORIAL HepG2 Assay for human p53 Transcription Factor (AID 2282994)
CONDITION_INFO: HepG2 p53 cis-element reporter, Attagene mRNA; actives raise or lower the signal
Calls of active or inactive are those of the source. How the source made its calls: active means hit-call score of the fitted dose curve at least 0.9, where 1 is the maximum; inactive means score below 0.9.
Classes used: Y = active, N = inactive

CCn1nc(Cc2ccccc2)cc1C1CCN(C[C@H]2C[C@H](N(C)[C@@H](C(=O)O)C(C)C)C[C@@H]2c2cccc(F)c2)CC1    Y
CC1=CC(=O)CC(C)(C)C1    N
CCCC(=O)OCC    N
CC(C)(O)c1coc(S(=O)(=O)NC(=O)Nc2c3c(cc4c2CCC4)CCC3)c1    N
Nc1ccc(Nc2ccccc2)cc1    N
Cc1[nH]cnc1C[C@H]1CCc2c(C)c3ccccc3n2C1=O    Y
